experiment: qHTS RealTime-Glo MT Cell Viability Assay in HepG2 cells - 32 hour (AID 1224877); conditions: RealTime-Glo luminescence; series mostly up to 76.8 µM; also: nearly all actives have a fitted effect of over 55% in size
Records with an inconclusive call do not appear. The source made the active and inactive calls. Calls follow the shape of the dose curve; as a rule, active = well fitted cell-killing curve with a large enough effect in the repeat runs; inconclusive = weak or mixed curves; inactive = flat fitted curve, though single readings scatter.
Possible outcomes: active, inactive

[
  {
    "compound": "COc1cc2[nH]c(=O)[nH]c(=O)c2cc1OC",
    "label-value": "inactive"
  },
  {
    "compound": "CC(C)(C)C(=O)O",
    "label-value": "inactive"
  },
  {
    "compound": "CNCCCC1c2ccccc2C=Cc2ccccc21",
    "label-value": "active"
  },
  {
    "compound": "Cc1cc(O)c2c(O)c3c(O)cccc3cc2c1",
    "label-value": "inactive"
  },
  {
    "compound": "CCCCC1C(=O)N(c2ccccc2)N(c2ccc(O)cc2)C1=O (configuration not stated)",
    "label-value": "active"
  },
  {
    "compound": "C(=C\\c1ccccc1)/CN1CCN(C(c2ccccc2)c2ccccc2)CC1",
    "label-value": "inactive"
  },
  {
    "compound": "CCCCC/C(=C\\c1ccccc1)CO",
    "label-value": "inactive"
  }
]

* * *

assay: qHTS assay to identify small molecule antagonists of the androgen receptor (AR) signaling pathway using the MDA cell line - cell viability counter screen (AID 743041; also: nearly all actives have a fitted effect of over 45% in size); conditions: MDA-kb2 viability, CellTiter-Fluor, 16 h, cells co-treated with R1881 androgen agonist; series mostly up to 70.3 µM
Inconclusive results are not listed. Active and inactive are the calls of the source. Calls come from the whole dose curve; as a rule, active = well fitted cell-killing curve with a large enough effect in the repeat runs; inconclusive = weak or mixed curves, or effect the other way; inactive = flat fitted curve, though single readings scatter.
Possible outcomes: True = active, False = inactive

[
  {
    "molecule": "ON(Cc1ccccc1)Cc1ccccc1",
    "label-value": "False"
  },
  {
    "molecule": "C/C=C/C=C/CCCCCCCO",
    "label-value": "False"
  },
  {
    "molecule": "CC1=C(C=O)C(C)(C)CCC1",
    "label-value": "False"
  },
  {
    "molecule": "Oc1ccc(Nc2ccccc2)cc1",
    "label-value": "False"
  },
  {
    "molecule": "CCCCCC=CCC=CCCCCCCCC(=O)OCC",
    "label-value": "False"
  },
  {
    "molecule": "CC1=NN(c2ccc(C(=O)O)cc2)C(=O)C1",
    "label-value": "False"
  },
  {
    "molecule": "CC(C)(O)c1ccccc1CC[C@@H](SCC1(CC(=O)O)CC1)c1cccc(/C=C/c2ccc3ccc(Cl)cc3n2)c1",
    "label-value": "False"
  },
  {
    "molecule": "Cc1nc2ccccc2s1",
    "label-value": "False"
  },
  {
    "molecule": "CCCCC/C(=C\\c1ccccc1)CO",
    "label-value": "False"
  },
  {
    "molecule": "CCc1c2c(nc3ccc(OC(=O)N4CCC(N5CCCCC5)CC4)cc13)-c1cc3c(c(=O)n1C2)COC(=O)[C@]3(O)CC",
    "label-value": "False"
  },
  {
    "molecule": "CCOc1cc(N)c(Cl)cc1C(=O)NCC1CN(Cc2ccc(F)cc2)CCO1 (configuration not stated)",
    "label-value": "False"
  },
  {
    "molecule": "C=CC(=O)NCOCC(C)C",
    "label-value": "False"
  },
  {
    "molecule": "Cc1nc2ccccn2c(=O)c1CCN1CCC(C(=O)c2ccc(F)cc2)CC1",
    "label-value": "False"
  },
  {
    "molecule": "Cc1cc(S(=O)(=O)O)ccc1N=Nc1c(O)ccc2ccccc12",
    "label-value": "True"
  },
  {
    "molecule": "Cc1oncc1C(=O)Nc1ccc(C(F)(F)F)cc1",
    "label-value": "False"
  },
  {
    "molecule": "O=C(CCCCCCC(=O)Nc1ccccc1)NO",
    "label-value": "False"
  },
  {
    "molecule": "O=C(O)c1cccc(O)c1",
    "label-value": "False"
  }
]
